tested on: NCI-H23 complex spheroids with HUVEC/MSC, viability; assay: Anticancer human tumor NCI-H23 cell line growth inhibition [RAS]; settings: second compound 0.00949 µM; first compound 10 µM; active = viability on the fitted dose curve at most 10% of control; inactive = the rest;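 also: spheroids exposed to compound for 7 days; 100% = DMSO vehicle control viability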
Pick one: class 1 = active, class 0 = inactive

Previously resolved entries follow.
[
  {
    "compound": "CC(Nc1ccc2c(c1)OCCn1cc(N3C(=O)OCC3C(F)F)nc1-2)C(N)=O (centres undefined) + CCn1c(-c2cc(N3CCN(C)CC3)cnc2C(C)OC)c2c3cc(ccc31)-c1csc(n1)CC(NC(=O)C1CC1C)C(=O)N1CCCC(N1)C(=O)OCC(C)(C)C2",
    "studyTarget": "NCI-H23 complex spheroids with HUVEC/MSC, viability",
    "group": "class 0"
  },
  {
    "compound": "CCC(CC)c1cc(NC2CCC(N)C2)n2nccc2n1 (centres undefined) + CCn1c(-c2cc(N3CCN(C)CC3)cnc2C(C)OC)c2c3cc(ccc31)-c1csc(n1)CC(NC(=O)C1CC1C)C(=O)N1CCCC(N1)C(=O)OCC(C)(C)C2",
    "studyTarget": "NCI-H23 complex spheroids with HUVEC/MSC, viability",
    "group": "class 1"
  },
  {
    "compound": "Cc1nc(N2CCC3(CC2)COC(C)C3N)c(CO)nc1Sc1ccnc(N)c1Cl (centres undefined) + CCn1c(-c2cccnc2C(C)OC)c2c3cc(ccc31)N1CCOC(CC(NC(=O)C(C(C)C)N(C)C(=O)C3(F)CCN(C(=O)C#CC(C)(C)N(C)C)CC3)C(=O)N3CCCC(N3)C(=O)OCC(C)(C)C2)C1",
    "studyTarget": "NCI-H23 complex spheroids with HUVEC/MSC, viability",
    "group": "class 1"
  }
]

Hi team, can someone confirm the assay call for CC(Nc1ccc2c(c1)OCCn1cc(N3C(=O)OCC3C(F)F)nc1-2)C(N)=O (centres undefined) + CCn1c(-c2cccnc2C(C)OC)c2c3cc(ccc31)N1CCOC(CC(NC(=O)C(C(C)C)N(C)C(=O)C3(F)CCN(C(=O)C#CC(C)(C)N(C)C)CC3)C(=O)N3CCCC(N3)C(=O)OCC(C)(C)C2)C1 ?
class 0
